- EXPERIMENT_DESCRIPTION: Cytotoxic Profiling in HEK 293 Cell Line of Diverse Libraries Using Quantitative High-Throughput Screening; also: nearly all actives have a fitted effect of over 60% in size
- RUN_CONDITIONS: HEK 293 viability, ATP luminescence (CellTiter-Glo), 48-72 h; series mostly up to 115 µM
The whole screen tested about 94,000 compounds, of which about 6,200 (6.6%) were called active. Another 31% or so got no clear call; they are omitted. Calls follow the shape of the dose curve; as a rule, active = well fitted inhibition curve with a large enough effect; inconclusive = small, poorly fitted or top-dose-only effect; inactive = flat fitted curve, though single readings scatter. Many of the other results were omitted from the sample, so actives are more common in it than they were.
Outcome (select one): Yes = active, No = inactive

Example entries begin here.
COc1ccccc1Nc1ccnc(N2CCC(NC(=O)NC(C)C)CC2)n1; No
CCOc1ccccc1NC(=O)Cn1c(=O)n(-c2ccccc2)c(=O)c2c1cc(C)n2C; No
COc1ccccc1Nc1ccnc(N2CCN(C(=O)c3ccc(C(F)(F)F)cc3)CC2)n1; Yes
O=C(NCc1ccncc1)C1CC(=O)N(c2n[nH]c3cccc(F)c23)C1 (stereo not given); No
CCc1cccc(C)c1NC(=O)CN1C(=O)C(c2ccccc2)=NC12CCCC2; No
CN1Cc2ccc(CN(C)C(=O)C3CCN(Cc4ccco4)CC3)cc2C1; No
O=C(c1ccccc1Cl)N1CCN(C(=O)c2nc3cccnc3n(Cc3ccccc3)c2=O)CC1; No
Cc1cc(C(=O)N2C[C@@H](COCC(N)=O)[C@H](c3ccncc3)C2)c(C)o1; No
COc1ccc(C2Cn3cnc(C(=O)N4CCC(C(=O)NCc5cccc(F)c5)CC4)c3CO2)cc1 (stereo not given); No

*Q* Per the records of this test, what outcome belongs to COc1ccc([C@@H](NC(=O)Cc2c(F)cccc2Cl)C2CC(O)C2)cn1 (stereo not given in full) ?
*A* No

* * *

- EXPERIMENT_DESCRIPTION: Cytotoxic Profiling in HEK 293 Cell Line of Diverse Libraries Using Quantitative High-Throughput Screening; also: nearly all actives have a fitted effect of over 60% in size
- RUN_CONDITIONS: HEK 293 viability, ATP luminescence (CellTiter-Glo), 48-72 h; series mostly up to 115 µM
Hit rate of the full screen: of about 94,000 compounds, about 6,200 (6.6%) were called active. About 31% were inconclusive and are not listed. Calls come from the whole dose curve; as a rule, active = well fitted inhibition curve with a large enough effect; inconclusive = small, poorly fitted or top-dose-only effect; inactive = flat fitted curve, though single readings scatter. The entries come from a sample that favours actives as a whole.
Outcome (select one): yes (1) for active, no (0) for inactive

CCCC(NC(C)=O)C(=O)Nc1cccc(NC(=O)Cc2ccccc2)c1 (stereo unspecified); no (0)
O=C(c1cnccn1)N1CCC(NCc2cc3n(n2)CCCNC3)CC1; no (0)
C=CCN(C)c1nc(C)nc2c1CCN(C(=O)N1CCOCC1)CC2; no (0)
Cc1cccc(CN2CCc3ncc(C(=O)NCc4ccccc4)n3CC2)n1; yes (1)
Cc1ccccc1CN1CCc2ncc(C(=O)NCCOc3ccccc3)n2CC1; yes (1)
Cc1nc(N2CCC(C(=O)NCc3ccc(C(C)C)cc3)CC2)cc(C(F)(F)F)n1; yes (1)

*Q* Per the records of this test, what outcome belongs to "COc1cccc(NC(=O)c2cnc3n[nH]c(-c4ccc(OC)cc4C)c3n2)c1" ?
*A* yes (1)

*Q* Per the records of this test, what outcome belongs to "N#Cc1ccc(CN2C[C@@H]3C[C@H]2C(=O)Nc2ccccc2O3)cc1" ?
*A* no (0)

* * *

- EXPERIMENT_DESCRIPTION: Cytotoxic Profiling in HEK 293 Cell Line of Diverse Libraries Using Quantitative High-Throughput Screening; also: nearly all actives have a fitted effect of over 60% in size
- RUN_CONDITIONS: HEK 293 viability, ATP luminescence (CellTiter-Glo), 48-72 h; series mostly up to 115 µM
About 6,200 (6.6%) of roughly 94,000 compounds were called active. Not shown: some 31% with an inconclusive outcome. Calls follow the shape of the dose curve; as a rule, active = well fitted inhibition curve with a large enough effect; inconclusive = small, poorly fitted or top-dose-only effect; inactive = flat fitted curve, though single readings scatter. What follows is part of a selection rich in actives, with near analogues and random picks from the rest.
Outcome (select one): YES (active), NO (inactive)

Fc1ccc(Nc2nc(-c3ccccc3F)no2)cc1; YES
COc1cccc([S+](=O)([O-])N2CCCC3(CC(c4cccc(C(F)(F)F)c4)=NO3)C2)c1 (stereo unspecified); NO
Cc1cccc(OCCc2noc(C3CCCN(Cc4ccccc4C#N)C3)n2)c1 (stereo unspecified); YES

*Q* Per the records of this test, what outcome belongs to O=C(c1ccccn1)N1CCCC(c2nc(CCOCC3CCOCC3)no2)C1 (stereo unspecified) ?
*A* NO

*Q* Per the records of this test, what outcome belongs to "O=C(Cn1ccn2nc(-c3ccc(F)cc3)c(CO)c2c1=O)Nc1ccc(F)cc1F" ?
*A* NO

*Q* Per the records of this test, what outcome belongs to Cc1ccc(CS(=O)(=O)N2CCC(C3CCNC3)CC2)cc1C (stereo unspecified) ?
*A* YES

* * *

- EXPERIMENT_DESCRIPTION: Cytotoxic Profiling in HEK 293 Cell Line of Diverse Libraries Using Quantitative High-Throughput Screening; also: nearly all actives have a fitted effect of over 60% in size; also: potency is read from the fitted curve at half-maximal effect
- RUN_CONDITIONS: HEK 293 viability, ATP luminescence (CellTiter-Glo), 48-72 h; series mostly up to 115 µM
Hit rate of the full screen: of about 94,000 compounds, about 6,200 (6.6%) were called active. Roughly 31% stayed inconclusive and do not appear here. The entries come from a sample that favours actives as a whole.
VALUE_TYPE: Potency

COCCOCC(=O)N1CCC2(CC1)c1[nH]c3ccc(OC)cc3c1CCN2C; inactive
O=C(COc1ccc(F)cc1)N1CCC2(CC1)NCCc1c2[nH]c2ccccc12; 44.7 µM (active)
O=C(NC1CCCN(c2ccc3nnc(C4CC4)n3n2)C1)c1ccccn1 (stereo not given); inactive
COc1cccc(N2CCN(C(=O)C3(c4ccc(NC(C)=O)cc4)CCC3)CC2)c1; inactive
COc1ccc(C2(C(=O)NCc3cccc(C(F)(F)F)c3)CCOCC2)cc1; inactive
O=C(NC1CCCC1)NC1CC(c2nnc(CO)n2C2CC2)C1 (stereo not given); inactive
COc1cc(C(=O)N2CCCN(S(C)(=O)=O)c3ccccc32)cc(OC)c1OC; inactive
Cc1cc(C)n(CC(=O)N2CCC3(CC2)NCCc2c3[nH]c3ccccc23)n1; inactive

The recorded Potency for "O=C(C1CC=CC1)N1CCC2(CC1)NCCc1c2[nH]c2ccccc12" is 39.8 µM (active)

The recorded Potency for "CN1[C@@H](CCC(=O)N2CCN(c3ccccn3)CC2)CNC(=O)[C@@H]2[C@H]1CCN2Cc1csnn1" is inactive

* * *

- EXPERIMENT_DESCRIPTION: Cytotoxic Profiling in HEK 293 Cell Line of Diverse Libraries Using Quantitative High-Throughput Screening; also: nearly all actives have a fitted effect of over 60% in size
- RUN_CONDITIONS: HEK 293 viability, ATP luminescence (CellTiter-Glo), 48-72 h; series mostly up to 115 µM
The campaign covered roughly 94,000 compounds. About 6,200 (6.6%) were called active. Another 31% or so got no clear call; they are omitted. Calls come from the whole dose curve; as a rule, active = well fitted inhibition curve with a large enough effect; inconclusive = small, poorly fitted or top-dose-only effect; inactive = flat fitted curve, though single readings scatter. Many of the other results were omitted from the sample, so actives are more common in it than they were.
Outcome (select one): active, inactive

Example entries begin here.
COc1ccc(-c2nc3c(c(=O)[nH]2)CCN(C(=O)Cc2ccc(OC)c(Cl)c2)C3)cc1; inactive
O=C(C1CCN(Cc2ccccc2-c2ccccc2F)CC1)N1CCC(c2ccccc2)CC1; active
COC(=O)CNC(=O)C1CCN(Cc2ccccc2-c2ccccc2F)CC1; inactive
COCCn1c(C)nnc1-c1cc(-c2cccc(F)c2)ccn1; inactive
O=C1Nc2cnccc2C2(CCN(C(=O)c3ccccc3F)C2)O1 (stereo unspecified); inactive

*Q* Per the records of this test, what outcome belongs to "CC(C)(CC(=O)O)CC(=O)N[C@H]1CO[C@H]2[C@@H]1OC[C@@H]2n1nnnc1-c1ccccc1" ?
*A* inactive

* * *

- EXPERIMENT_DESCRIPTION: Cytotoxic Profiling in HEK 293 Cell Line of Diverse Libraries Using Quantitative High-Throughput Screening; also: nearly all actives have a fitted effect of over 60% in size
- RUN_CONDITIONS: HEK 293 viability, ATP luminescence (CellTiter-Glo), 48-72 h; series mostly up to 115 µM
Among all 94,000 compounds or so, about 6,200 (6.6%) were called active. Roughly 31% stayed inconclusive and do not appear here. Calls come from the whole dose curve; as a rule, active = well fitted inhibition curve with a large enough effect; inconclusive = small, poorly fitted or top-dose-only effect; inactive = flat fitted curve, though single readings scatter. For the sample, actives were picked, then their nearest neighbours and some compounds at random.
Outcome (select one): 1 (active), -1 (inactive)

CN(C)CCNC(=O)c1nc2nc(-c3ccccc3)c(-c3cccc(F)c3)cc2n1C; 1
COc1ccc(Nc2cc3c(nc2-c2ccccc2)nc(C(=O)NCCN(C)C)n3C)cn1; -1

Lab note: next compound to report on.
*Q* Per the records of this test, what outcome belongs to "CCN(C1CCN(C)CC1)C1CN(C(=O)c2nccc3ccccc23)C1" ?
*A* -1

* * *

- EXPERIMENT_DESCRIPTION: Cytotoxic Profiling in HEK 293 Cell Line of Diverse Libraries Using Quantitative High-Throughput Screening; also: nearly all actives have a fitted effect of over 60% in size
- RUN_CONDITIONS: HEK 293 viability, ATP luminescence (CellTiter-Glo), 48-72 h; series mostly up to 115 µM
The campaign covered roughly 94,000 compounds. About 6,200 (6.6%) were called active. Not shown: some 31% with an inconclusive outcome. Calls come from the whole dose curve; as a rule, active = well fitted inhibition curve with a large enough effect; inconclusive = small, poorly fitted or top-dose-only effect; inactive = flat fitted curve, though single readings scatter. The sample holds actives, similar compounds and a random draw of the others, so the mix is not that of the screen.
Outcome (select one): active, inactive

Example entries begin here.
CC(C)CN1CCN(C2CCOC3(CCN(S(=O)(=O)c4cccs4)CC3)C2)CC1 (stereo not given); inactive
CCN1c2cc(C(=O)Nc3ccc(SC)cc3)ccc2C(=O)N2CCCCCC21 (stereo not given); active
COc1ccc(C2Cn3nnc(C(=O)N4CCC(C(=O)NCc5ccc(C)cc5)CC4)c3CO2)cc1 (stereo not given); inactive
CCN1c2cc(C(=O)Nc3ccc(F)c(Cl)c3)ccc2C(=O)N2CCCCC21 (stereo not given); active

*Q* Per the records of this test, what outcome belongs to O=C(Nc1ccccc1Cl)N1CCC(Oc2ncccc2C(=O)N2CCCCC2)C1 (stereo not given) ?
*A* inactive

*Q* Per the records of this test, what outcome belongs to "CCOCC(=O)Nc1nn(-c2cccc(F)c2)c2cccc(N3CCOC3=O)c12" ?
*A* inactive

*Q* Per the records of this test, what outcome belongs to "O=C(NCC1CCOCC1)c1ccc2[nH]ccc2c1" ?
*A* inactive

*Q* Per the records of this test, what outcome belongs to Cc1nc(CCNC(=O)C2CCCN(c3nc(-c4ccccc4)nc4c3CCC4)C2)n[nH]1 (stereo not given) ?
*A* inactive

*Q* Per the records of this test, what outcome belongs to "Cc1cc(S(=O)(=O)N2CCCN(C)c3ccccc32)ccc1F" ?
*A* active

*Q* Per the records of this test, what outcome belongs to "Cc1nc(N2CCC(NCCNc3ccncc3C)CC2)c2ccsc2n1" ?
*A* active

*Q* Per the records of this test, what outcome belongs to CCOC(=O)C1(Cc2ccc(F)cc2F)CCCN(Cc2cccc(OC)c2O)C1 (stereo not given) ?
*A* active

*Q* Per the records of this test, what outcome belongs to "CCN(C1CCOCC1)C1CN(C(=O)C2CCC2)C1" ?
*A* inactive

*Q* Per the records of this test, what outcome belongs to "NCc1ccccc1-c1ccc(F)cc1" ?
*A* inactive
